Target: T1, TNFR1 (Homo sapiens, UniProt P19438)
T1 chain: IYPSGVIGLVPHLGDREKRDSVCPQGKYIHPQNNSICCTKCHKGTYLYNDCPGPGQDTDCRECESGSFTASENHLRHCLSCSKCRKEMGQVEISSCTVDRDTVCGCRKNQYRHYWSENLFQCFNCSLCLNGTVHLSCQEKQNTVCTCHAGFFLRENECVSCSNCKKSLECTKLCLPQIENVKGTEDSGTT
Experiment: yeast display SC50
parameter_measured: apparent Kd (screen) (pM)

Reference set (5 entries):
- binder: "E9V (designed binder) MTLQELLRVEALRRAEAEAFRYALELLAEKFPEQKEYLLDLAEEIESQIRSLSGVDVEDVRKFLDKEWAWVKELLAEHPAELAEVEAARAARLAELRAEVEAKVAA"
  parameter_measured: "apparent Kd (screen)"
  result_units: "pM"
  result_number: 869
- binder: "T2G (designed binder) MGLQELLREEALRRAEAEAFRYALELLAEKFPEQKEYLLDLAEEIESQIRSLSGVDVEDVRKFLDKEWAWVKELLAEHPAELAEVEAARAARLAELRAEVEAKVAA"
  parameter_measured: "apparent Kd (screen)"
  result_units: "pM"
  result_number: 1160
- binder: "H78A (designed binder) MTLQELLREEALRRAEAEAFRYALELLAEKFPEQKEYLLDLAEEIESQIRSLSGVDVEDVRKFLDKEWAWVKELLAEAPAELAEVEAARAARLAELRAEVEAKVAA"
  parameter_measured: "apparent Kd (screen)"
  result_units: "pM"
  result_number: 539
- binder: "A91P (designed binder) MTLQELLREEALRRAEAEAFRYALELLAEKFPEQKEYLLDLAEEIESQIRSLSGVDVEDVRKFLDKEWAWVKELLAEHPAELAEVEAARAPRLAELRAEVEAKVAA"
  parameter_measured: "apparent Kd (screen)"
  result_units: "pM"
  result_number: 490
- binder: "L27S (designed binder) MTLQELLREEALRRAEAEAFRYALELSAEKFPEQKEYLLDLAEEIESQIRSLSGVDVEDVRKFLDKEWAWVKELLAEHPAELAEVEAARAARLAELRAEVEAKVAA"
  parameter_measured: "apparent Kd (screen)"
  result_units: "pM"
  result_number: 593

(A) Y22K (designed binder) MTLQELLREEALRRAEAEAFRKALELLAEKFPEQKEYLLDLAEEIESQIRSLSGVDVEDVRKFLDKEWAWVKELLAEHPAELAEVEAARAARLAELRAEVEAKVAA
(B) E25N (designed binder) MTLQELLREEALRRAEAEAFRYALNLLAEKFPEQKEYLLDLAEEIESQIRSLSGVDVEDVRKFLDKEWAWVKELLAEHPAELAEVEAARAARLAELRAEVEAKVAA
(C) L7N (designed binder) MTLQELNREEALRRAEAEAFRYALELLAEKFPEQKEYLLDLAEEIESQIRSLSGVDVEDVRKFLDKEWAWVKELLAEHPAELAEVEAARAARLAELRAEVEAKVAA
Could you please sort these 3 entries by apparent Kd (screen) from high to low? Form entry: ranked labels (order as requested).
C, B, A
(C: 24400 pM, B: 869 pM, A: 490 pM)

Cited source for all entries: paper PMC12416549
